Cited source: patent US9790189B2

# Target Or Test System: CDK9/CycT1 (Homo sapiens, UniProt P50750)
# Sequence (P50750 whole entry): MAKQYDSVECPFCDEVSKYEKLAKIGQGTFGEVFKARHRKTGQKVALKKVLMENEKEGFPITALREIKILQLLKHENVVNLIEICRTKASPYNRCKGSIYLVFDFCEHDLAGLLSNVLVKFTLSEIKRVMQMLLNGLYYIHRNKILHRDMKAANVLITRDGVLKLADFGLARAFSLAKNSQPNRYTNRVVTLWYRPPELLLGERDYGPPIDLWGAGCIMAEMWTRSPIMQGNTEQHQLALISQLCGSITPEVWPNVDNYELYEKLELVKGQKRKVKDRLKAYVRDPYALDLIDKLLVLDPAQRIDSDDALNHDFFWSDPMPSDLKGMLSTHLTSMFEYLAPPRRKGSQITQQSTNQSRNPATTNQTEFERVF
# Sequence (O60563 whole entry partner): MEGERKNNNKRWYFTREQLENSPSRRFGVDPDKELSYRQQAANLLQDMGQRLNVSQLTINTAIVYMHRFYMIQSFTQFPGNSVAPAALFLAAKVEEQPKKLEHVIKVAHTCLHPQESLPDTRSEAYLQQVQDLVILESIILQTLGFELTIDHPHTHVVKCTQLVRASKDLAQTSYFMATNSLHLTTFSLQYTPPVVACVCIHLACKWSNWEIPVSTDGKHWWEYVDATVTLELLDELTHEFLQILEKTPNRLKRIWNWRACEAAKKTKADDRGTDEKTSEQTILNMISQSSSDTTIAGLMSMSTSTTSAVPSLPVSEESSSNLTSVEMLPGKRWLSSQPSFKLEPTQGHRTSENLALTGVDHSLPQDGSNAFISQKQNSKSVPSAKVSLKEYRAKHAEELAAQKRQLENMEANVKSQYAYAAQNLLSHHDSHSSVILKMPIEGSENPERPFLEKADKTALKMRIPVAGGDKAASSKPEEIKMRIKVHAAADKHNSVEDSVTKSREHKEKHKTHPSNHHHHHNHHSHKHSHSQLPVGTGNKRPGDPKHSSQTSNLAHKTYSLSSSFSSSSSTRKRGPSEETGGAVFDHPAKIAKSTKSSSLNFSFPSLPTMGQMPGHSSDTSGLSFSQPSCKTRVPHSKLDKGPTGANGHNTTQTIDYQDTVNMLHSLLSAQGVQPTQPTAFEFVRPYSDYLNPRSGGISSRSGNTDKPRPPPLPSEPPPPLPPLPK
# Assay Protocol: CDK9/CycT1 kinase assay (TR-FRET, Method 1a)
Quantity: IC50 (nM)
I only need the number, in nM, no unit after it.

Data request, read-out IC50, for CS(=N)(=N)Cc1cc(Nc2ncc(F)c(-c3ccc(F)cc3F)n2)cc(S(F)(F)(F)(F)F)c1
17

* * *

# Target Or Test System: CDK2/CycE (Homo sapiens)
# Assay Protocol: CDK2/CycE kinase assay (TR-FRET, Method 2a)
Quantity: IC50 (nM)
Field: numeric (nM). Do not append units.

# input molecule: COc1cc(F)ccc1-c1nc(Nc2cc(F)cc(CS(C)(=N)=NCCCO)c2)ncc1F (racemic) ; wanted: its IC50
970

Which value of IC50 has been reported for C#CCN=S(C)(=N)Cc1cc(F)cc(Nc2ncc(F)c(-c3ccc(F)cc3OC)n2)c1 (racemic) in the records?
580

Please give the measured IC50 for this molecule: COc1cc(F)ccc1-c1nc(Nc2cc(CS(C)(=N)=N)cc(S(F)(F)(F)(F)F)c2)ncc1F
400

Recorded IC50 for COc1cc(F)ccc1-c1nc(Nc2cc(F)cc(CS(C)(=N)=NC#N)c2)ncc1F (racemic) , please?
190

May I ask what IC50 has been recorded for CN=S(C)(=N)Cc1cc(F)cc(Nc2ncc(F)c(-c3ccc(F)cc3OC)n2)c1 (racemic) ?
1300
